Reference source: ChEMBL document CHEMBL1145766

- TGT: Alpha-1D adrenergic receptor (Homo sapiens)
- Sequence (whole entry): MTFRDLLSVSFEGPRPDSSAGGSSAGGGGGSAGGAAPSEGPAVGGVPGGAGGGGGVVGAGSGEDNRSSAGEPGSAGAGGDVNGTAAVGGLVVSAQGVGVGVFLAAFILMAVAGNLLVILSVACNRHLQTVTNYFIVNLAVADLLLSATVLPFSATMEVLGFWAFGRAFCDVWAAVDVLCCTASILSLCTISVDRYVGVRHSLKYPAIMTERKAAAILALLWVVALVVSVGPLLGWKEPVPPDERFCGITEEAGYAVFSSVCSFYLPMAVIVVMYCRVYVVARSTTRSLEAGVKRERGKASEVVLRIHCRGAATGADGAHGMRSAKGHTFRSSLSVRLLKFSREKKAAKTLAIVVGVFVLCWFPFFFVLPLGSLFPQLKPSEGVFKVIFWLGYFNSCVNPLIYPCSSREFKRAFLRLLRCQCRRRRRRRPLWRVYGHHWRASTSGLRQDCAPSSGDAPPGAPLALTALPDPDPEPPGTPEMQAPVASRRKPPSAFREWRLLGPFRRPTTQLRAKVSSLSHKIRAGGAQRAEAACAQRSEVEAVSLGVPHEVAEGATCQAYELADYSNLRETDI
- PROTOCOL_DESCRIPTION: Maximal response via calcium mobilization towards Human Alpha-1D adrenergic receptor as percent relative to […] phenylephrine
- Format: functional
METRIC: Max response (%)

Some compounds with recorded Max response:
SMILES_STRING	TGT	Max response, %
CCn1cccc1-c1ccccc1NCC1=NCCN1	Alpha-1D adrenergic receptor (Homo sapiens)	0
Cn1cccc1-c1ccccc1NCC1=NCCN1	Alpha-1D adrenergic receptor (Homo sapiens)	32
CCn1cc(-c2ccccc2NCC2=NCCN2)cn1	Alpha-1D adrenergic receptor (Homo sapiens)	0

(I) CC(C)n1nccc1-c1ccccc1NCC1=NCCN1
(II) c1ccc(-c2cn[nH]c2)c(NCC2=NCCN2)c1
Given the listed records, identify the one among I and II with higher Max response. Return value: the label identifying the chosen record.
II

---

- TGT: Alpha-1A adrenergic receptor (Homo sapiens)
- Sequence (P35348 whole entry): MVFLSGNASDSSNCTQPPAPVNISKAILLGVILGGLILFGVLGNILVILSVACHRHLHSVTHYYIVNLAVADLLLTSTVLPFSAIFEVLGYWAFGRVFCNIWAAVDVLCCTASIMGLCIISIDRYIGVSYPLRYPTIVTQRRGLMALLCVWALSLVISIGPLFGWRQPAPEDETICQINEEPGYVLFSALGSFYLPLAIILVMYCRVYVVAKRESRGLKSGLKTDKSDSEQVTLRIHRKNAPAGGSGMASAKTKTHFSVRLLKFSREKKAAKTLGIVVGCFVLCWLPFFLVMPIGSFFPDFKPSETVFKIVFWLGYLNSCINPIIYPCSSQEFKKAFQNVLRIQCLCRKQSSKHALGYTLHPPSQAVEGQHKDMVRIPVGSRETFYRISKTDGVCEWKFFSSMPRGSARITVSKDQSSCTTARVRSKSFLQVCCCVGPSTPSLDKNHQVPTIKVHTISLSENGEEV
- PROTOCOL_DESCRIPTION: Agonism of human alpha-1A adrenergic receptor expressed in rat 1 fibroblast cells
METRIC: EC50 (nM)

Some compounds with recorded EC50:
SMILES_STRING	QUANTITATIVE_READOUT
Cn1ccc(-c2ccccc2NCC2=NCCN2)n1	3.16
Cc1n[nH]c(-c2ccccc2NCC2=NCCN2)n1	794
FC(F)(F)Cn1ncnc1-c1ccccc1NCC1=NCCN1	79.4
c1ccc(-c2cn[nH]c2)c(NCC2=NCCN2)c1	1.26
CCCn1ncnc1-c1ccccc1NCC1=NCCN1	12.6

(P) CCCn1nccc1-c1ccccc1NCC1=NCCN1
(Q) Cc1ccc(-c2ccccc2NCC2=NCCN2)n1C
I would appreciate it if you could say which entry, P or Q , has the lower EC50 value. Return value: the label identifying the chosen record.
Q
(Q: 50.1 nM, P: 251 nM)

---

- TGT: Alpha-1B adrenergic receptor (Homo sapiens, UniProt P35368)
- Sequence (P35368 whole entry): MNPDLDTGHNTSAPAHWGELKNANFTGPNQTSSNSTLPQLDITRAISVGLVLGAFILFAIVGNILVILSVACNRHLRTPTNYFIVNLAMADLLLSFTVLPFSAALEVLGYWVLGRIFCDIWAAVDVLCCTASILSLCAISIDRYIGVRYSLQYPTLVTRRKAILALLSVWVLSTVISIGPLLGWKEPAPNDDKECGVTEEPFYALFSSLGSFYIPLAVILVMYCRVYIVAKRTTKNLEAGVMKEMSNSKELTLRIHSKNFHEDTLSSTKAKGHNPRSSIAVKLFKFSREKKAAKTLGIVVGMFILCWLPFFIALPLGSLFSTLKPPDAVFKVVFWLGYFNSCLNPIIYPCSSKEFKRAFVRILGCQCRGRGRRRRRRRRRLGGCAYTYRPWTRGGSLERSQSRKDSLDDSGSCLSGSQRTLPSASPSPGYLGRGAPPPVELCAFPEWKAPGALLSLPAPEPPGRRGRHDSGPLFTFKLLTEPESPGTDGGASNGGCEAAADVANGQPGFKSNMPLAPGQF
- PROTOCOL_DESCRIPTION: Agonism of human alpha-1B adrenergic receptor, expressed in rat 1 fibroblast cells
METRIC: EC50

SMILES_STRING	EC50
Cn1ccnc1-c1ccccc1NCC1=NCCN1	0.0398 µM
Cc1nc(-c2ccccc2NCC2=NCCN2)n(C)n1	> 5.01 µM
CC(C)n1ncnc1-c1ccccc1NCC1=NCCN1	> 100 µM

Dear colleague, I am looking for the recorded EC50 of the following compound: `CCn1cccc1-c1ccccc1NCC1=NCCN1`
> 100 µM

Dear colleague, I am looking for the recorded EC50 of the following compound: `CC(C)n1nccc1-c1ccccc1NCC1=NCCN1`
> 100 µM
